// reported IC50 for each item listed
# System tested: NDM-1 (Klebsiella pneumoniae, UniProt C7C422)
# Sequence (C7C422 29-270, looked up, species assumed): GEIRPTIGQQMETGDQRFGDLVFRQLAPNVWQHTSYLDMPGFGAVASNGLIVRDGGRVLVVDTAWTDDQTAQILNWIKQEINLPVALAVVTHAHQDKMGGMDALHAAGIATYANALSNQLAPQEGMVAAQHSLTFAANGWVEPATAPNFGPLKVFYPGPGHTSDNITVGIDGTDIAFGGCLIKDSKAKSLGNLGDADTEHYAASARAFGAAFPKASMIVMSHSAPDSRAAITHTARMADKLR
# Protocol notes: MBL inhibition, FC-5 fluorescence assay, NDM-1
# Type: biochemical
# Run parameters: FC-5 cephalosporin substrate, fluorescence; ranges of obtained pIC50; read-out: pIC50 NDM-1 (converted)

Give the reported value of IC50 for this record: C[C@@H](c1cccc2c(-c3ccc(NS(C)(=O)=O)c(C#N)c3)c(C(=O)O)[nH]c12)n1cc(CN2CC(N)C2)oc1=O < 0.1 nM

Give the reported value of IC50 for this record: CC(c1cccc2c(-c3ccc(CS(C)(=O)=O)c(F)c3)c(C(=O)O)[nH]c12)N(C)C(=O)c1ccc(CN)cc1 (stereo not shown) 1 to 10 nM

Give the reported value of IC50 for this record: CC(c1cccc2c(-c3ccc(CS(C)(=O)=O)c(F)c3)c(C(=O)O)[nH]c12)n1cc(CCCN)[nH]c1=O (stereo not shown) 1 to 10 nM

Give the reported value of IC50 for this record: CC(C)c1cccc2c(-c3cc(Cl)cc(Cl)c3)c(C(=O)O)[nH]c12 [Prior Art Compound 76, reference compound] 1 to 10 nM

----------
# Tested on: Acinetobacter baumannii NDM-1
# Protocol notes: Antibiotic susceptibility testing (MIC), AB NDM-1
# Assay type: cell-based
# Run parameters: agar or broth dilution (CLSI/EUCAST)
Observed property: MIC values AB NDM-1

INSERT INTO assay_data (compound, result) VALUES
  ('C[C@@H](c1cccc2c(-c3ccc(NS(C)(=O)=O)c(F)c3)c(C(=O)O)[nH]c12)N1C[C@]2(C[C@@H](CN)C2)OC1=O', 'B (B MIC values 2 ÷ 8)'),
  ('C[C@@H](c1cccc2c(-c3ccc(CS(C)(=O)=O)c(F)c3)c(C(=O)O)[nH]c12)N1CC2(CNC2)OC1=O', 'B (B MIC values 2 ÷ 8)'),
  ('COc1cc(-c2c(C(=O)O)[nH]c3c([C@H](C)n4cc(CN5CC(N)C5)oc4=O)cccc23)ccn1', 'B (B MIC values 2 ÷ 8)'),
  ('C=C(CC(=O)NCCc1c[nH]cn1)c1cccc2c(-c3ccc(CS(C)(=O)=O)c(F)c3)c(C(=O)O)[nH]c12', 'C (C = MIC values > 8)'),
  ('C[C@@H](c1cccc2c(-c3ccc(=O)[nH]c3)c(C(=O)O)[nH]c12)N1C[C@]2(C[C@@H](CN)C2)OC1=O', 'C (C = MIC values > 8)');

Give the reported value of MIC values AB NDM-1 for this record: C[C@@H](c1cccc2c(-c3ccc(CS(C)(=O)=O)c(F)c3)c(C(=O)O)[nH]c12)n1cc(CN2CC(N)C2)oc1=O B (B MIC values 2 ÷ 8)

Give the reported value of MIC values AB NDM-1 for this record: CC(c1cccc2c(-c3ccc(CS(C)(=O)=O)c(F)c3)c(C(=O)O)[nH]c12)n1cc(CNC(=O)CN)oc1=O (centres unmarked) B (B MIC values 2 ÷ 8)

Give the reported value of MIC values AB NDM-1 for this record: C[C@@H](c1cccc2c(-c3ccnc(O)c3)c(C(=O)O)[nH]c12)N1C[C@]2(C[C@@H](CN)C2)OC1=O B (B MIC values 2 ÷ 8)

Give the reported value of MIC values AB NDM-1 for this record: CNc1cc(-c2c(C(=O)O)[nH]c3c([C@H](C)N4C[C@]5(C[C@@H](CN)C5)OC4=O)cccc23)ccn1 C (C = MIC values > 8)

Give the reported value of MIC values AB NDM-1 for this record: C[C@@H](c1cccc2c(-c3ccc(CS(C)(=O)=O)c(F)c3)c(C(=O)O)[nH]c12)N1CC2(CN(C(=N)N)C2)OC1=O B (B MIC values 2 ÷ 8)

Give the reported value of MIC values AB NDM-1 for this record: C[C@@H](c1cccc2c(-c3ccc(NS(=O)(=O)C4COC4)c(F)c3)c(C(=O)O)[nH]c12)N1C[C@]2(C[C@@H](CN)C2)OC1=O B (B MIC values 2 ÷ 8)

Give the reported value of MIC values AB NDM-1 for this record: C[C@@H](c1cccc2c(-c3cnn(C)c(=O)c3)c(C(=O)O)[nH]c12)N1C[C@]2(C[C@@H](CN)C2)OC1=O C (C = MIC values > 8)

Give the reported value of MIC values AB NDM-1 for this record: C[C@@H](c1cccc2c(-c3cn[nH]c(=O)c3)c(C(=O)O)[nH]c12)N1C[C@]2(C[C@@H](CN)C2)OC1=O B (B MIC values 2 ÷ 8)

Give the reported value of MIC values AB NDM-1 for this record: COc1cc(-c2c(C(=O)O)[nH]c3c([C@H](C)N4C[C@]5(C[C@@H](CN)C5)OC4=O)cccc23)cnc1O C (C = MIC values > 8)
